target: MARK1 (human); test: KINOMEscan competition binding; settings: compound 10.0 µM
experimental_readout: kinase still bound, per cent of control (%)

INSERT INTO measurements (molecule, experimental_readout, result_value) VALUES
  ('CCc1nc(-c2cccc(C)c2)c(-c2ccnc(NC(=O)c3ccccc3)c2)s1', 'kinase still bound, per cent of control', 100),
  ('CC1=C(C(=O)Nc2cc3cn[nH]c3cc2F)C(c2ccc(C(F)(F)F)cc2)CC(=O)N1 (centres undefined)', 'kinase still bound, per cent of control', 100),
  ('COc1cc2c(Nc3ccc(NC(=O)c4ccccc4)cc3)ncnc2cc1OCCCN1CCOCC1', 'kinase still bound, per cent of control', 100),
  ('COc1cc(N2CCC(C(N)=O)CC2)ccc1Nc1nc(N)c(Cl)c(Nc2ccccc2S(=O)(=O)C(C)C)n1', 'kinase still bound, per cent of control', 100),
  ('N#Cc1cc(-c2ccnc(Nc3ccc(-n4cnc(-c5cccnc5)n4)cc3)n2)cc(N2CCOCC2)c1', 'kinase still bound, per cent of control', 84),
  ('CCN(CCO)CCCOc1ccc2c(Nc3cc(CC(=O)Nc4cccc(F)c4)[nH]n3)ncnc2c1', 'kinase still bound, per cent of control', 98),
  ('O=c1[nH]c2ccccc2n1C1CCN(Cc2ccc(-c3nc4cc5[nH]cnc5cc4nc3-c3ccccc3)cc2)CC1', 'kinase still bound, per cent of control', 97),
  ('CCCS(=O)(=O)Nc1ccc(F)c(C(=O)c2c[nH]c3ncc(Cl)cc23)c1F', 'kinase still bound, per cent of control', 74),
  ('CCOc1cc(N2CCC(O)CC2)ccc1Nc1ncc2c(n1)N(C)c1ccccc1C(=O)N2C', 'kinase still bound, per cent of control', 100);

----------
target: PRKCH (human); assay: KINOMEscan competition binding; conditions: compound 10.0 µM
experimental_readout: kinase still bound, per cent of control (%)

INSERT INTO assay_data (cpd_smiles, result_value) VALUES
  ('CCN1CCN(Cc2ccc(NC(=O)c3ccc(C)c(/C=C/c4cnc5[nH]ccc5c4OC)c3)cc2C(F)(F)F)CC1', 100),
  ('O=c1[nH]c2ccccc2n1C1CCN(Cc2ccc(-c3nc4cc5[nH]cnc5cc4nc3-c3ccccc3)cc2)CC1', 69),
  ('CNC(=O)Nc1ccc(-c2nc(N3CC4CCC(C3)O4)c3cnn(C4CCC5(CC4)OCCO5)c3n2)cc1', 91),
  ('Cc1cn(-c2cc(C(=O)Nc3ccc(C)c(NC(=O)c4ccno4)c3)cc(C(F)(F)F)c2)cn1', 100),
  ('N#Cc1cc(-c2ccnc(Nc3ccc(-n4cnc(-c5cccnc5)n4)cc3)n2)cc(N2CCOCC2)c1', 83),
  ('CCN(CCO)CCCOc1ccc2c(Nc3cc(CC(=O)Nc4cccc(F)c4)[nH]n3)ncnc2c1', 100),
  ('CCOc1cc(N2CCC(O)CC2)ccc1Nc1ncc2c(n1)N(C)c1ccccc1C(=O)N2C', 100),
  ('C=CC(=O)Nc1ccc(C(=O)c2sc(Nc3ccc(N4CCN(C)CC4)cc3OC)nc2N)cc1', 100);

----------
target: STK16 (human); test: KINOMEscan competition binding; conditions: compound 10.0 µM
# Lookup of reported kinase still bound, per cent of control keyed by entry
experimental_readout: kinase still bound, per cent of control (%)

INSERT INTO measurements (compound, experimental_readout, display_unit, result_value) VALUES
  ('N#Cc1cc(-c2ccnc(Nc3ccc(-n4cnc(-c5cccnc5)n4)cc3)n2)cc(N2CCOCC2)c1', 'kinase still bound, per cent of control', '%', 12),
  ('CC1=C(C(=O)Nc2cc3cn[nH]c3cc2F)C(c2ccc(C(F)(F)F)cc2)CC(=O)N1 (stereo not drawn)', 'kinase still bound, per cent of control', '%', 100),
  ('COc1ccc(N(C(=O)Oc2cc(C(=O)Nc3cccc(C(F)(F)F)c3)ccc2C)c2ccnc(Nc3ccc(N4CCN(C)CC4)cc3)n2)c(OC)c1', 'kinase still bound, per cent of control', '%', 100),
  ('O=c1[nH]c2ccccc2n1C1CCN(Cc2ccc(-c3nc4cc5[nH]cnc5cc4nc3-c3ccccc3)cc2)CC1', 'kinase still bound, per cent of control', '%', 92),
  ('CCN(CCO)CCCOc1ccc2c(Nc3cc(CC(=O)Nc4cccc(F)c4)[nH]n3)ncnc2c1', 'kinase still bound, per cent of control', '%', 100),
  ('CCc1nc(-c2cccc(C)c2)c(-c2ccnc(NC(=O)c3ccccc3)c2)s1', 'kinase still bound, per cent of control', '%', 74),
  ('Cc1cn(-c2cc(C(=O)Nc3ccc(C)c(NC(=O)c4ccno4)c3)cc(C(F)(F)F)c2)cn1', 'kinase still bound, per cent of control', '%', 100),
  ('C=CC(=O)Nc1ccc(C(=O)c2sc(Nc3ccc(N4CCN(C)CC4)cc3OC)nc2N)cc1', 'kinase still bound, per cent of control', '%', 50),
  ('CCCS(=O)(=O)Nc1ccc(F)c(C(=O)c2c[nH]c3ncc(Cl)cc23)c1F', 'kinase still bound, per cent of control', '%', 18),
  ('CCN1CCN(Cc2ccc(NC(=O)c3ccc(C)c(/C=C/c4cnc5[nH]ccc5c4OC)c3)cc2C(F)(F)F)CC1', 'kinase still bound, per cent of control', '%', 54),
  ('CNC(=O)Nc1ccc(-c2nc(N3CC4CCC(C3)O4)c3cnn(C4CCC5(CC4)OCCO5)c3n2)cc1', 'kinase still bound, per cent of control', '%', 98),
  ('CCOc1cc(N2CCC(O)CC2)ccc1Nc1ncc2c(n1)N(C)c1ccccc1C(=O)N2C', 'kinase still bound, per cent of control', '%', 100),
  ('COc1cc(C)c(Sc2cnc(NC(=O)c3ccc(CNC(C)C(C)C)cc3)s2)cc1C(=O)N1CCN(C(C)=O)CC1 (stereo not drawn)', 'kinase still bound, per cent of control', '%', 100),
  ('COc1cc2c(Nc3ccc(NC(=O)c4ccccc4)cc3)ncnc2cc1OCCCN1CCOCC1', 'kinase still bound, per cent of control', '%', 100),
  ('CC(=O)c1c(C)c2cnc(Nc3ccc(N4CCNCC4)cn3)nc2n(C2CCCC2)c1=O', 'kinase still bound, per cent of control', '%', 3.4),
  ('COc1cc2ncnc(Nc3cccc(Cl)c3)c2cc1OC', 'kinase still bound, per cent of control', '%', 97),
  ('COc1cc(N2CCC(C(N)=O)CC2)ccc1Nc1nc(N)c(Cl)c(Nc2ccccc2S(=O)(=O)C(C)C)n1', 'kinase still bound, per cent of control', '%', 100),
  ('N#C/C(=C1/Nc2ccccc2S1)c1ccnc(NCCc2cccnc2)n1', 'kinase still bound, per cent of control', '%', 13);
